# targetDesc: JAK3 tyrosine kinase (Homo sapiens, UniProt P52333)
# Sequence (P52333 1-1124): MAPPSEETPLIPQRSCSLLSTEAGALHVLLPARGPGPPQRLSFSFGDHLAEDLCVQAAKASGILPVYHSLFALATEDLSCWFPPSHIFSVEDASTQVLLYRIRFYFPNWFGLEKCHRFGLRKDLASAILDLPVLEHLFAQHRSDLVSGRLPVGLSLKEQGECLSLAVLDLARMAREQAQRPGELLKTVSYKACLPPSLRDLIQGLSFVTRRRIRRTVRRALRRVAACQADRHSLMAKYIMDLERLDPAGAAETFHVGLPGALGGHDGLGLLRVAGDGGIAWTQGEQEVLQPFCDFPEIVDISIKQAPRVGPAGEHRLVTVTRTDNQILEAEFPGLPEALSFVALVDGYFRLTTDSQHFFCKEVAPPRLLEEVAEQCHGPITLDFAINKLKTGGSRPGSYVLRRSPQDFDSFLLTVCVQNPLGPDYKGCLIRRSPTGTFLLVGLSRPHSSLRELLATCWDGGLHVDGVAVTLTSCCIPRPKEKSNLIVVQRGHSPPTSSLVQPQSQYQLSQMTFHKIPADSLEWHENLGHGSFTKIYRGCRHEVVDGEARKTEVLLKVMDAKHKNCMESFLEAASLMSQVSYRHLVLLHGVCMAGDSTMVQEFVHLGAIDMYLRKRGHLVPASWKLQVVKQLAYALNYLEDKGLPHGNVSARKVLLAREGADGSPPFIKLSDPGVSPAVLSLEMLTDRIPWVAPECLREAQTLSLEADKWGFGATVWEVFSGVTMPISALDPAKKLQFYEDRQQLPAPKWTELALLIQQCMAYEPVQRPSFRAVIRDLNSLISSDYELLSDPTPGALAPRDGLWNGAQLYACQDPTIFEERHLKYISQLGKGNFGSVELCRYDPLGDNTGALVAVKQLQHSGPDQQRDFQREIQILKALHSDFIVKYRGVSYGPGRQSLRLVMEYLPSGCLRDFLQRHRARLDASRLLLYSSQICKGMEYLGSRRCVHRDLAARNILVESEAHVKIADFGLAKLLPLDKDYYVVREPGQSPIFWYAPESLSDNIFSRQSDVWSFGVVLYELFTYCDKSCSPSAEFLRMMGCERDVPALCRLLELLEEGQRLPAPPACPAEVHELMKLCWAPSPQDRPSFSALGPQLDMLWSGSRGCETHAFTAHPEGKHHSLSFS
Counter-ions that a name gives are not always drawn.
measuredAttribute: IC50 (nM)

Sample records with IC50:
C[C@H](Nc1nc(Nc2cnccn2)cc(N2CCNC(=O)C2)n1)c1ccc(F)cc1: 45
Cc1cn(-c2cc(Nc3cnccn3)nc(N[C@@H](C)c3ccc(F)cc3)n2)cn1 [Example 118, hydrochloride]: 290
C[C@H](Nc1cc(OCCCO)cc(Nc2cnccn2)n1)c1ccc(F)cc1 [Example 41, hydrochloride]: 51
C[C@H](Nc1nc(Nc2cnccn2)cc(N2CCCC(O)C2)n1)c1ccc(F)cc1 (stereo partly shown) [Example 73, hydrochloride]: 48

A. C[C@H](Nc1nc(Nc2cnccn2)cc(-c2cccc(S(C)(=O)=O)c2)n1)c1ccc(F)cc1 [Example 35, hydrochloride]
B. C[C@H](Nc1cc(N2CCC(O)(CO)CC2)cc(Nc2cnccn2)n1)c1ccc(F)cc1
Exercise: # query: argmin of IC50 over A and B // caller expects the label of the chosen entry
Key: B

1. CC(=O)N[C@H]1CCN(c2cc(Nc3cnccn3)nc(N[C@@H](C)c3ccc(F)cc3)c2)C1 [Example 38, hydrochloride]
2. C[C@H](Nc1nc(NCCN2CCCC2)cc(Nc2cnccn2)n1)c1ccc(F)cc1
3. C[C@H](Nc1nc(Nc2cnccn2)cc(N2CC(C(=O)N3CCCCC3)C2)n1)c1ccc(F)cc1
4. Cc1cc(Nc2cnccn2)nc(N[C@@H](C)c2ccc(F)cc2)c1 [Example 121, hydrochloride]
5. C[C@H](Nc1cc(N2CCSCC2)cc(Nc2cnccn2)n1)c1ccc(F)cc1
Exercise: Arrange the 5 compounds from largest to smallest IC50. Give your ranking as a list of the labels in the requested order.
Key: 5, 4, 1, 3, 2

a. CC(=O)NC1CN(c2cc(Nc3cnccn3)nc(N[C@@H](C)c3ccc(F)cc3)n2)C1
b. COC1(C)CN(c2cc(Nc3cnccn3)nc(N[C@@H](C)c3ccc(F)cc3)c2)C1 [Example 213, hydrochloride]
c. C[C@H](Nc1nc(Nc2cnccn2)cc(-c2ccnc(F)c2)n1)c1ccc(F)cc1
d. C[C@H](Nc1nc(Nc2cnccn2)cc(N2CC(N3CCCC3)C2)n1)c1ccc(F)cc1
e. CC(=O)N[C@H]1CCN(c2cc(Nc3cnccn3)nc(N[C@@H](C)c3ccc(F)cc3)n2)C1 [Example 2, hydrochloride]
Exercise: Arrange the 5 compounds from largest to smallest IC50. Give your ranking as a list of the labels in the requested order.
Key: c, b, a, e, d
(c: 220 nM, b: 130 nM, a: 66 nM, e: 43 nM, d: 18 nM)
